Tested on: SW-620
experimentSummary: NCI tumour cell line growth inhibition, 48 h
Active and inactive are the calls of the source. Cut-off read from the data, not from the text of the source: active = GI50 up to about 1.1 µM and inactive = higher.
Would you mind answering with one of these outcomes? active, inactive

Reference set, count: 3
1) COC(=O)c1nc(C(=O)OC)c2c([nH]c3ccccc32)c1C(=O)OC; inactive
2) Cc1ccc(/N=N/c2cc(=O)[nH]c(=O)[nH]2)cc1C; inactive
3) Cc1cc(NCC2CC/C(=C\C=C\c3ccccc3)C2=O)no1 (stereo unspecified); inactive

Entry CC1CC(=O)Nc2nc3ccccc3n21 (stereo unspecified) : call = ?
inactive

Dear colleague, could you share the recorded outcome for CCOC(=O)C1C=C1C(C)(C)O (stereo unspecified) when you have a moment?
inactive
